TARGET_SYSTEM: Ataxin-2 (Homo sapiens)
ASSAY_SUMMARY: qHTS for Inhibitors of ATXN expression.
Type: functional
Screen size: about 400,000 compounds; about 2,100 (0.53%) were called active. Not shown: some 14% with an inconclusive outcome. Shown is part of a subset that was picked to be rich in actives.
VALUE_TYPE: Potency

> print(dat)
                                   compound    result
1  Cc1cccc(N=C(S)N2CCC(C(N)=O)(N3CCCCC3)CC2)c1C  inactive
2  COc1ccc(NC(=O)CSc2n[nH]c(C(C)C)n2)c([N+](=O)[O-])c1  inactive
3  CCN(CC)c1ccc(/C=N/NC(=S)NCc2ccc(OC)cc2)cc1  inactive
4  O=C(NCc1ccc(F)cc1)c1ccc(CS(=O)(=O)c2ccc(Br)cc2)o1  inactive
5  COc1ccc(C2CC(c3cccc(F)c3)=NN2c2ccc(S(N)(=O)=O)cc2)cc1 (configuration not stated)  inactive

Data request: Return Potency for the following compound: CCn1c(O)c(N=NC(S)=NCC2CCCO2)c2ccccc21 (configuration not stated)
Data returned: 8.91 µM (active)

Data request: Return Potency for the following compound: O=C1c2ccccc2-c2ccc(C(=O)N3CCCCC3)cc21
Data returned: inactive

Data request: Return Potency for the following compound: Cc1ccc2[nH]c(/C(C#N)=C/c3ccc(-c4ccccc4C(=O)O)o3)nc2c1
Data returned: inactive
